# Tested on: CAKI-1 renal
# protocol notes: NCI tumour cell line growth inhibition, 48 h
# GI50 listing for each entry below

1) C=Cc1cc(OC)c2c(c1)c(=O)oc1c2cc(OC)c2c(O)ccc(C3OC(C)C(O)C(C)(O)C3O)c21 (stereo not drawn)
0.00224 µM

Q) Give GI50 for Cc1[nH]nc2ccc3nc(-c4ccc5[nH]ncc5c4)c4c(c3c12)CCCC4
A) 0.535 µM

Q) Give GI50 for COc1ccc(-c2nn(-c3cccc(NC(=O)c4cccc(C(F)(F)F)c4)c3)cc2-c2ccncc2)cc1Cl
A) 2.57 µM

Q) Give GI50 for CS(=O)(=O)c1ccc(Oc2cc(F)cc(C#N)c2)c2c1[C@H](O)C(F)(F)C2
A) > 100 µM

Q) Give GI50 for CCC[CH2][Sn]1([CH2]CCC)[O]CC(CN2CCOCC2)[O]1 (stereo not drawn)
A) 1.36 µM

Q) Give GI50 for COc1nc(N)nc2c1ncn2[C@@H]1O[C@H](CO)[C@@H](O)[C@@H]1O
A) > 100 µM

Q) Give GI50 for O=C(Cc1ccccc1)NC(c1ccc(Cl)cc1)c1c(O)ccc2ccccc12 (stereo not drawn)
A) 2.52 µM

Q) Give GI50 for O=C1CCC(N2Cc3c(C#CCCCNC(=O)c4cc5c(o4)C(=O)c4ccccc4C5=O)cccc3C2=O)C(=O)N1 (stereo not drawn)
A) 14.3 µM
